FYI, the data here is from patent US7053107B2.

target: unphosphorylated VEGF-R2Δ50 (Homo sapiens, UniProt P35968, DEL940-989/E990V); construct: VEGF-R2Δ50 contains residues 806–939 and 990–1171; made in house; host or cells: baculovirus/insect cell system; experiment: VEGF-R2 coupled spectrophotometric assay, unphosphorylated construct (FLVK); type: biochemical; details: % inhibition at 50 nM compound; read-out: FLVK Ki % inh @ 50 nM
Sequence (P35968 with tags, fused parts or gaps DEL940-989/E990V limits assumed): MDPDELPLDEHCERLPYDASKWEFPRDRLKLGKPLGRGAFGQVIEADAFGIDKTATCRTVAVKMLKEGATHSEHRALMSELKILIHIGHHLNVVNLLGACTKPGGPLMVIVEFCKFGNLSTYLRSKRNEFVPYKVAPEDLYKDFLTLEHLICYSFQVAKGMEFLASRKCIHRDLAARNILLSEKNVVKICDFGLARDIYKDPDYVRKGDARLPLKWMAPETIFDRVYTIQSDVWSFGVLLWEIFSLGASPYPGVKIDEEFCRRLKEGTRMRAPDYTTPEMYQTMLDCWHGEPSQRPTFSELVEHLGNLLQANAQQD
Known inhibition at 0.05 µM of a selection of compounds
reportedProperty: inhibition at 0.05 µM (%)

compound	reportedProperty	displayUnit	reading
C#CCNC(=O)c1ccccc1Nc1ccc2c(/C=C/c3cc(C)ccn3)n[nH]c2c1 [Example 32]	inhibition at 0.05 µM	%	78
Cc1ccnc(/C=C/c2n[nH]c3cc(Nc4ccccc4C(=O)NCc4ccccn4)ccc23)c1 [Example 37]	inhibition at 0.05 µM	%	90
Cc1ccnc(/C=C/c2n[nH]c3cc(Nc4ccccc4C(=O)NCc4nc5ccccc5n4C)ccc23)c1 [Example 45]	inhibition at 0.05 µM	%	28
C#CCNC(=O)c1ccccc1Nc1ccc2c(/C=C/c3cc(C)cc(C)n3)n[nH]c2c1 [Example 13]	inhibition at 0.05 µM	%	80
Cc1cc(C)nc(/C=C/c2n[nH]c3cc(Nc4ncccc4C(=O)NCC#CC4CC4)ccc23)c1 [Example 25]	inhibition at 0.05 µM	%	64
C=C(C)CNC(=O)c1ccccc1Nc1ccc2c(/C=C/c3ccccn3)n[nH]c2c1 [Example 3(k)]	inhibition at 0.05 µM	%	74
O=C(NCC#CCO)c1ccccc1Nc1ccc2c(/C=N/n3cccc3)n[nH]c2c1 [Example 57]	inhibition at 0.05 µM	%	91
Cn1cccc1C(=O)NNC(=O)c1ccccc1Nc1ccc2c(/C=C/c3ccccn3)n[nH]c2c1 [Example 3(f)]	inhibition at 0.05 µM	%	95

* * *

Entries annotated with measured IC50
target: PDGFRβ (Homo sapiens); test: PAE-PDGFRβ Phosphorylation in PAE-PDGFRB Cells Assay; conditions: PAE cells overexpressing human PDGFRβ; read-out: PAE PDGFR autophos IC50
Sequence (P09619 33-1106): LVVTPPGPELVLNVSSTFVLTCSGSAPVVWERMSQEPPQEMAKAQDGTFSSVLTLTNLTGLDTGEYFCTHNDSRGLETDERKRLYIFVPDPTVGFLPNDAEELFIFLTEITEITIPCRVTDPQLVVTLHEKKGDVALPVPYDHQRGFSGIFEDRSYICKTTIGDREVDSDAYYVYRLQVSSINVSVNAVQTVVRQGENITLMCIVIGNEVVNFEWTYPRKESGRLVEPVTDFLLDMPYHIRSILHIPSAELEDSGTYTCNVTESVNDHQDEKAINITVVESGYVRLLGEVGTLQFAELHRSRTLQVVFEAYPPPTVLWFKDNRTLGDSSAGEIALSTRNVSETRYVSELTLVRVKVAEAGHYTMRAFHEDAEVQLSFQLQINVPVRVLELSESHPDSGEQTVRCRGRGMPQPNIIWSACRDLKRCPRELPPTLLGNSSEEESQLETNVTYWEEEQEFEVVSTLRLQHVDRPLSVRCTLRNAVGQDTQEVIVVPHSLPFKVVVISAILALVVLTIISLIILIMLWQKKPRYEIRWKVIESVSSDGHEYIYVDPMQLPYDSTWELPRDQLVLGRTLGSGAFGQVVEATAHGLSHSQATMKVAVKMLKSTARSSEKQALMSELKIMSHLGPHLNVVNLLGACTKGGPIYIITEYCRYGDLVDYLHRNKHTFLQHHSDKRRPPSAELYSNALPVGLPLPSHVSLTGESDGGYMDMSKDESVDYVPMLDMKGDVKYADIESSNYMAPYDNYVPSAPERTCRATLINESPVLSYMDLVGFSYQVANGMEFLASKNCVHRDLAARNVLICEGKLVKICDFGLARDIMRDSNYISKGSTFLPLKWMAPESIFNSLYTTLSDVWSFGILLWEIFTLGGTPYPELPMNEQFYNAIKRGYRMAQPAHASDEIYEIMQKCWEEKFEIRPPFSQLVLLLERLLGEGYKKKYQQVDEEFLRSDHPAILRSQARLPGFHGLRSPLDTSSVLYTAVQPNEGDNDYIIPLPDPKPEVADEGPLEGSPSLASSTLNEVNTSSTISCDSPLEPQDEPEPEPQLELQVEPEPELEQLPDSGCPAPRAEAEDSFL
reportedProperty: IC50 (nM)

chemicalString	reportedProperty	reading
Cc1ccnc(/C=C/c2n[nH]c3cc(Nc4ccccc4C(=O)NC4CC4)ccc23)c1	IC50	2.8
C=C(C)CNC(=O)c1ccccc1Nc1ccc2c(/C=C/c3cc(C)cc(C)n3)n[nH]c2c1	IC50	12.3
Cc1ccnc(/C=C/c2n[nH]c3cc(Nc4ccccc4C(=O)NCc4ccncc4)ccc23)c1	IC50	2
C=C(C)CNC(=O)c1ccccc1Nc1ccc2c(/C=C/c3ccccn3)n[nH]c2c1	IC50	5
O=C(NC1CCC1)c1ccccc1Nc1ccc2c(/C=C/c3ccccn3)n[nH]c2c1	IC50	4.7
Cc1ccnc(/C=C/c2n[nH]c3cc(Nc4ccccc4C(=O)NCc4cccc(C)n4)ccc23)c1	IC50	4.7
COc1ccccc1CNC(=O)c1ccccc1Nc1ccc2c(/C=C/c3ccccn3)n[nH]c2c1	IC50	0.63
O=C(NCC#CCO)c1ccccc1Nc1ccc2c(/C=N/n3cccc3)n[nH]c2c1	IC50	1.3

* * *

molecular target: LCK (Homo sapiens, UniProt P06239, C224D/P223M); construct: starting from amino acid residue 223 to the end of the protein at residue 509; made in house; host or cells: insect cells; experiment: Lymphocyte-Specific Protein-Tyrosine Kinase (LCK) spectrophotometric assay; type: biochemical; settings: 1 μM compound; read-out: LckP* % inhibit @1 μM
Sequence (P06239 223-509 P223M/C224D): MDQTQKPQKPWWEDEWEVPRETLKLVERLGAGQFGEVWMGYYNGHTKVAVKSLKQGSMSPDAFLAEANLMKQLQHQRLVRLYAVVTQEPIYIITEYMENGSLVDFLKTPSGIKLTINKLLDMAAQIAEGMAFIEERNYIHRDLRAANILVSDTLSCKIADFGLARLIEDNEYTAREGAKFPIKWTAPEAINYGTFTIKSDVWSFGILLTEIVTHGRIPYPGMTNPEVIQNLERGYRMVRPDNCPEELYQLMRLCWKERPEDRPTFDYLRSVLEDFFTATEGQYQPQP
// reported inhibition at 1 µM per item

chemicalString	testTarget	inhibition at 1 µM / %
Cn1cccc1C(=O)NNC(=O)c1ccccc1Nc1ccc2c(/C=C/c3ccccn3)n[nH]c2c1	LCK (Homo sapiens, UniProt P06239, C224D/P223M)	41
CC(C)ONC(=O)c1ccccc1Nc1ccc2c(/C=C/c3ccccn3)n[nH]c2c1	LCK (Homo sapiens, UniProt P06239, C224D/P223M)	9
O=C(NC1CC1)c1ccccc1Nc1ccc2c(/C=C/c3ccccn3)n[nH]c2c1	LCK (Homo sapiens, UniProt P06239, C224D/P223M)	11
C=C(C)CNC(=O)c1ccccc1Nc1ccc2c(/C=C/c3ccccn3)n[nH]c2c1	LCK (Homo sapiens, UniProt P06239, C224D/P223M)	19
